Sourced from patent US20260103474A1

Target system: Human brain derived TDP-43 aggregates (Homo sapiens, UniProt Q13148)
Construct: Human FTD sarkosyl-insoluble brain extracts were spotted onto microarray slides
Sequence (Q13148 261-414 limits assumed): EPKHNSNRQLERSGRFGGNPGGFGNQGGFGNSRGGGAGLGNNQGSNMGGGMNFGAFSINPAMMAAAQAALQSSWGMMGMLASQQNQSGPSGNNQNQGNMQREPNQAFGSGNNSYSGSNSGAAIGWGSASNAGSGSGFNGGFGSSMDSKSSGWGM
Measurement protocol: Micro-radiobinding competition assay for binding affinity to TDP-43
Experimental parameters: non-radiolabeled compound at 250 nM vs tritiated reference ligand at 40 nM; FTD sarkosyl-insoluble brain extracts
Property label: Human brain derived TDP-43 aggregates Mean % competition at 250 nM (%)

Here is how some compounds turned out for Human brain derived TDP-43 aggregates Mean % competition at 250 nM.
{"Compound": "O=C1c2sc(-c3ccc(N4CC[C@H](F)C4)nc3F)nc2CCN1c1cccnc1 [Compound 8]", "Test value": 55}
{"Compound": "O=C1c2sc(-c3ccc(N4CCC[C@H](F)C4)nc3F)nc2CCN1c1cnsc1 [Compound 27]", "Test value": 57}
{"Compound": "O=C1c2sc(-c3ccc(N4CC[C@@H](F)C4)nc3F)nc2CCN1c1cnsc1 [Compound 22]", "Test value": 68}
{"Compound": "O=C1c2sc(-c3ccc(N4CCCC4)nc3F)nc2CCN1c1cccnc1 [Compound 9]", "Test value": 62}
{"Compound": "Cn1cc(N2CCc3nc(-c4ccc(N5CC[C@@H](F)C5)nc4F)sc3C2=O)cn1 [Compound 11]", "Test value": 73}
{"Compound": "Nc1cc(N2CCc3nc(-c4ccc(N5CC[C@H](F)C5)nc4F)sc3C2=O)ccn1 [Compound 26]", "Test value": 55}
{"Compound": "O=C1c2sc(-c3ccc(N4CCCCC4)nc3F)nc2CCN1c1ccnc(F)c1 [Compound 23]", "Test value": 73}
{"Compound": "O=C1c2sc(-c3ccc(N4CC[C@H](F)C4)nc3F)nc2CCN1c1ccnnc1 [Compound 36]", "Test value": 66}
{"Compound": "N#Cc1c(N)cccc1N1CCc2nc(-c3ccc(N4CCC[C@@H](F)C4)nc3F)sc2C1=O [Compound 30]", "Test value": 66}
{"Compound": "O=C1c2sc(-c3ccc(N4CC[C@@H](F)C4)nc3F)nc2CCN1c1cncnc1 [Compound 13]", "Test value": 57}

(P) Cn1cc(N2CCc3nc(-c4ccc(N5CCCC5)nc4F)sc3C2=O)cn1 [Compound 21]
(Q) O=C1c2sc(-c3ccc(N4CC[C@H](F)C4)nc3F)nc2CCN1c1ncccn1 [Compound 16]
# query: argmin of Human brain derived TDP-43 aggregates Mean % competition at 250 nM over P and Q # reply format: chosen label
P
(P: 46%, Q: 67%)

(A) Nc1cc(N2CCc3nc(-c4ccc(N5CCCC5)nc4F)sc3C2=O)ccc1F [Compound 10]
(B) O=C1c2sc(-c3ccc(N4CC[C@H](F)C4)nc3F)nc2CCN1c1ccncn1 [Compound 37]
Between A and B , which one shows the larger Human brain derived TDP-43 aggregates Mean % competition at 250 nM value? # reply format: chosen label
B
(B: 80%, A: 52%)

---

Target system: Human brain derived TDP-43 aggregates (Homo sapiens, UniProt Q13148)
Construct: Human FTD sarkosyl-insoluble brain extracts were spotted onto microarray slides
Measurement protocol: Micro-radiobinding competition assay for binding affinity to TDP-43
Experimental parameters: 0.24 nM to 2 μM vs tritiated reference ligand at 40 nM
Property label: Ki (µM)

Here is how some molecules turned out for Ki.
{"Molecule smiles": "Nc1cc(N2CCc3nc(-c4ccc(N5CC[C@H](F)C5)nc4F)sc3C2=O)ccn1", "Ki [µM]": 0.013}
{"Molecule smiles": "O=C1c2sc(-c3ccc(N4CCC[C@H](F)C4)nc3F)nc2CCN1c1ncccn1", "Ki [µM]": 0.049}
{"Molecule smiles": "O=C1c2sc(-c3ccc(N4CCC[C@H](F)C4)nc3F)nc2CCN1c1cnsc1", "Ki [µM]": 0.048}
{"Molecule smiles": "O=C1c2sc(-c3ccc(N4CCC(CO)CC4)nc3F)nc2CCN1c1cccnc1", "Ki [µM]": 0.041}
{"Molecule smiles": "O=C1c2sc(-c3ccc(N4CC[C@H](F)C4)nc3F)nc2CCN1c1cnsc1", "Ki [µM]": 0.048}

(P) O=C1c2sc(-c3ccc(N4CCCC4)nc3F)nc2CCN1c1cccnc1
(Q) O=C1c2sc(-c3ccc(N4CC[C@@H](F)C4)nc3F)nc2CCN1c1ncccn1
# query: argmin of Ki over P and Q # reply format: chosen label
Q
(Q: 0.011 µM, P: 0.031 µM)
